- System name: Nav1.5 sodium channel, peak current (INaP) (Homo sapiens, UniProt Q14524, form not given)
- Assay notes: in vitro
- Measurement conditions: Peak Na+ (INaP) IC50
- Experimental: This provided data to investigate the physiology and action of target compounds on individual ion channels. The assay used standardized protocols for culturing and conducting conventional whole cell recording that have been previously developed for both current and voltage-clamp to characterize action potentials using transfected cells. Briefly, the Nav1.5 sodium channel was transfected into HEK293 cells. […] Briefly, cells were plated on 0.1% gelatin-coated 35-mm plastic Petri dishes. […]
Structures can show the parent of a compound that is named as a salt.
Property label: IC50

INSERT INTO results (compound, reading) VALUES
  ('Cc1cccnc1OCC(C)N (stereo not drawn) [Compound 100]', '252 µM'),
  ('Cc1cccc(OCC(N)c2ccccc2)c1C (stereo not drawn) [Compound 35]', '10.9 µM'),
  ('Cc1cccc(C)c1OC[C@@H](C)N [Compound 2a, (R)-(−)-Mexiletine Hydrochloride, reference compound]', '128 µM'),
  ('Cc1cccc(C)c1OCC(N)C(C)(C)C (stereo not drawn) [Compound 12]', '91 µM'),
  ('Cc1cccc(C)c1OCC(C)N (racemic) [Compound 1, Mexiletine, reference compound]', '183 µM'),
  ('Cc1cccc(C)c1OC[C@H](C)N [Compound 2b, (S)-(+)-Mexiletine Hydrochloride, reference compound]', '129 µM'),
  ('Cc1cc(C)cc(OCC(C)N)c1 (stereo not drawn) [Compound 55]', '154 µM'),
  ('Cc1cccc(C)c1OCC(N)C1CC1 (stereo not drawn) [Compound 10]', '130 µM'),
  ('Cc1cccc(C)c1OCC(C)N (racemic) [racemic Mexiletine]', '183 µM');
